Assay: Acute oral toxicity (TSCA, 40 CFR Part 798, 798.1175)
Conditions: rat, in vivo, dose levels 1.80, 1.50 and 1.30 g/kg, male and female Sprague-Dawley rats
Property Name: LD50 (mg/kg)
Express your answer in mg/kg, writing the number without its unit.

Exercise: GET /values?readout=LD50&item= CCC1COC(C(C)C)N1 (stereo not shown)
Key: 1600
